Recorded stoichiometry N for the following binders
Target: T1, 14-3-3ζ (human, full-length) (human, UniProt P63104 1-245)
T1 construct: N-terminal glycine retained after TEV cleavage of the His tag; 14-3-3ζ, human, ORF bought from GeneCopoeia, in Gateway pDEST17; full-length; Dimer in the crystal; the ITC stoichiometry counts on the 14-3-3 monomer; also called WT 14-3-3ζ; source: E. coli BL21 (DE3) pLysS, purified (Ni Sepharose, TEV cleavage, second Ni Sepharose pass); not shown: His tag, N-terminal, cleaved
T1 sequence: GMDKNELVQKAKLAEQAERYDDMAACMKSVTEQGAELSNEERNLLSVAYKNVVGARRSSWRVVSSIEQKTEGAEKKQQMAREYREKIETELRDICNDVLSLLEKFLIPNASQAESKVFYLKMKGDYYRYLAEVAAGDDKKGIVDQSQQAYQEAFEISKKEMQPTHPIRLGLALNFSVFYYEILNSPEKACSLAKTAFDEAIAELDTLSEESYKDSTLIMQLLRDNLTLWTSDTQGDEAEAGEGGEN
Assay: ITC; VP-ITC, 25°C; ~1-2 mM peptide titrated in 5 uL aliquots into ~100-200 uM 14-3-3ζ in the cell; 50 mM sodium phosphate, 100 mM NaCl, 1 mM DTT, pH 6.8; one-site model; in duplicate
Conditions: both partners purified
Square brackets hold non-standard residues; d marks the D form. Ends that are not written are not given here. pS = N[C@@H](COP(=O)(O)O)C(=O)O
measurementName: stoichiometry N

INSERT INTO assay_data (binder, val) VALUES
  ('Ac-RKSA[pS]LP-NH2 (SMILES CC(=O)N[C@@H](CCCNC(=N)N)C(=O)N[C@@H](CCCCN)C(=O)N[C@@H](CO)C(=O)N[C@@H](C)C(=O)N[C@@H](COP(=O)(O)O)C(=O)N[C@@H](CC(C)C)C(=O)N1CCC[C@H]1C(N)=O, Chibby (Cby), human, residues 16-22 with S22P; also called Cby 7-mer S22P; 16RKSA(pS)LP22; source: synthetic peptide, bought: TUFTS University Core Facility) [pCby S22P 7-mer]', 1.03),
  ('Ac-RKSA[pS]LS-NH2 (SMILES CC(=O)N[C@@H](CCCNC(=N)N)C(=O)N[C@@H](CCCCN)C(=O)N[C@@H](CO)C(=O)N[C@@H](C)C(=O)N[C@@H](COP(=O)(O)O)C(=O)N[C@@H](CC(C)C)C(=O)N[C@@H](CO)C(N)=O, also called 16RKSA(pS)LS22; pCby WT 7-mer; source: synthetic peptide, bought: TUFTS University Core Facility) [pCby 7-mer]', 1.01),
  ('KTPPRKSA[pS]LSNLHSLDR (Chibby (Cby), human, residues 12-29; free NH2 and COOH ends; also called Cby 18-mer WT; WT Cby 18-mer; source: synthetic peptide, bought: GenScript USA Inc) [pCby 18-mer]', 0.96),
  ('KTPPRKSA[pS]LPNL (Chibby (Cby), human, residues 12-24 with S22P; free NH2 and COOH ends; also called Cby 13-mer S22P; source: synthetic peptide, bought: TUFTS University Core Facility) [pCby S22P 13-mer]', 1.06);
